Recorded measurements of Efficiency, one per entry
measuredTarget: human M2 receptor (Homo sapiens)
Sequence (P08172 1-466): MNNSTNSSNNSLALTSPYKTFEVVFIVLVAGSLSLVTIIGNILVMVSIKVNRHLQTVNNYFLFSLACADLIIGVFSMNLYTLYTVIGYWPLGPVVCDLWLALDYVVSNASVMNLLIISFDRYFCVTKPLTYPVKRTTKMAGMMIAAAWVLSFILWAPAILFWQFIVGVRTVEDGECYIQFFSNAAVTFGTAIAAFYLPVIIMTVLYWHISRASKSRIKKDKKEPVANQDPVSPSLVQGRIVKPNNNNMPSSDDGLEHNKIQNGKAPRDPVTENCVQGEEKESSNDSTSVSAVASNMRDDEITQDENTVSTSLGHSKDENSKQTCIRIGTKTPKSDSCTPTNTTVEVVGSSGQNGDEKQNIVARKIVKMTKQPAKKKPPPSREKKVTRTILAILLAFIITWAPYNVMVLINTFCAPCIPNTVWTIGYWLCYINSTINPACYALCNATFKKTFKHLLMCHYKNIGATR
setupConditions: boosting of the acetylcholine effect at EC20 acetylcholine concentration; M2-GIRK1/4 reporter cells

Examples with answers:
[[record]]
compound = "O=C(N[C@@H](C1CC1)C(F)(F)F)c1cn(-c2c(F)cc(F)cc2F)c2nc(N3CC(O)C4(CC4)C3)ccc2c1=O (single isomer, unassigned)"
measuredtarget = "human M2 receptor (Homo sapiens)"
assayresult = "91.5%"

[[record]]
compound = "CC1CN(c2ccc3c(=O)c(C(=O)N[C@@H](C4CC4)C(F)(F)F)cn(-c4c(F)cc(F)cc4F)c3n2)C(=O)O1 (stereo in doubt)"
measuredtarget = "human M2 receptor (Homo sapiens)"
assayresult = "97.5%"

[[record]]
compound = "CC[C@@H](COC(F)(F)F)NC(=O)c1cn(-c2c(F)cc(F)cc2F)c2nc(N3C[C@@H](C)NC3=O)ccc2c1=O (single isomer, unassigned)"
measuredtarget = "human M2 receptor (Homo sapiens)"
assayresult = "100.0%"


Efficiency reported for this compound O=C(N[C@@H](C1CC1)C(F)(F)F)c1cn(-c2c(F)cc(F)cc2F)c2nc(N3CC[C@@H](O)[C@H](O)C3)ccc2c1=O (single isomer, unassigned) : 98.0%

Efficiency reported for this compound CCC(NC(=O)c1cn(-c2ccc(F)cc2F)c2nc(N3C[C@@H](O)CC3=O)ccc2c1=O)C(F)(F)C(F)(F)F (single isomer, unassigned) : 100.0%

Efficiency reported for this compound CC(NC(=O)c1cn(-c2c(F)cc(F)cc2F)c2nc(N3CCNC3=O)ccc2c1=O)C(F)(F)C(F)(F)F (racemic) [Example 541] : 92.2%
